These entries and their values trace back to patent US20080207728A1.

target: human FSH receptor (Homo sapiens); construct: expressed in transfected cells; host or cells: CHO cells (hFSHR clone 16); test: HTRF assay for measuring cAMP in cells (FSH antagonism); assay type: cell-based; conditions: Table 1; hFSHR clone 16 cells (CHO cells stably transfected with the human FSH receptor), in the presence of 1e-9 mol/l hFSH, 37° C. for 2 h; read-out: IC50 (FSH-antagonistic effect in the HTRF assay)
Sequence (P23945 18-695): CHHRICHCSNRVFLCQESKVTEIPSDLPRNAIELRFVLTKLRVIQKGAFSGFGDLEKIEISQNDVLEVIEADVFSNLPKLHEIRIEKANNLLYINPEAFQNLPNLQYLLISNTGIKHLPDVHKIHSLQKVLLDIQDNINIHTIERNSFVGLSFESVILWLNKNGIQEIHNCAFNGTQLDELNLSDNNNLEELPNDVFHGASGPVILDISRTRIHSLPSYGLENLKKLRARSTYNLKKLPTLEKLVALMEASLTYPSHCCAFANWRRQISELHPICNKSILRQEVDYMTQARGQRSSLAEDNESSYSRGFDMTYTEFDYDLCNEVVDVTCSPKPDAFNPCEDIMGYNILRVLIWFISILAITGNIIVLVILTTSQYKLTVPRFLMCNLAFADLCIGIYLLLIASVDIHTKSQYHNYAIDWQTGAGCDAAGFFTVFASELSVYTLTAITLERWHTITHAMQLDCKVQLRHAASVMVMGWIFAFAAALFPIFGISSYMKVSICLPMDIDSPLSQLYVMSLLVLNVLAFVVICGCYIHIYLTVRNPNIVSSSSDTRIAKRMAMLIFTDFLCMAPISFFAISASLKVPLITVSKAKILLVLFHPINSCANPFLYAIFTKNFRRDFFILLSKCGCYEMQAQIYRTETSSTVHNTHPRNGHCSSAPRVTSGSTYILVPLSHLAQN
Please go through the items and note down their log10 of IC50.
Please interpret these as log10 of IC50 where IC50 is in nM.

// field: log10 of IC50; key: CNC(=O)c1ccc(-c2cc3c(c(C(=O)NC(CO)Cc4c[nH]c5cccc(F)c45)c2)OC(C)(C)C=C3)cc1Cl (stereo not shown) ; value = 1.48

log10 of IC50 for CNC(=O)c1cc(F)cc(-c2cc3c(c(C(=O)N[C@@H](CO)Cc4c[nH]c5ccccc45)c2)OCC3)c1 is 3.60

The value of log10 of IC50 measured for the molecule CNC(=O)c1cccc(C#Cc2cc3c(c(C(=O)N[C@@H](CO)Cc4c[nH]c5ccccc45)c2)OC(C)(C)C=C3)c1 turned out to be 1.48

molecule N#CCc1ccc(-c2cc3c(c(C(=O)N[C@@H](CO)Cc4c[nH]c5ccccc45)c2)OCC3)cc1 , log10 of IC50 observed: 3.30

Form field log10 of IC50, entry CC(=O)c1cccc(-c2cc3c(c(C(=O)N[C@@H](CO)Cc4c[nH]c5ccccc45)c2)OCC3)c1 : 3.30

Consider O=C(NC(CO)Cc1c[nH]c2cc(F)ccc12)c1cc(/C=C/c2ccccc2)cc2c1OCCCC2 (stereo not shown) . Its measured log10 of IC50 is 2.54

Lab note: measured log10 of IC50 of COc1ccccc1C#Cc1cc2c(c(C(=O)N[C@@H](CO)Cc3c[nH]c4ccccc34)c1)OCCO2 was 2.30

The measured log10 of IC50 associated with O=C(N[C@@H](CO)Cc1c[nH]c2ccccc12)c1cc(-c2ccc3c(c2)OCO3)cc2c1OCC2 reads 2.65

Lab book: log10 of IC50 of O=C(N[C@@H](CO)Cc1c[nH]c2ccccc12)c1cc(-c2ccc3ccccc3c2)cc2c1OCC2 noted as 3.60

Looking up O=C(N[C@@H](CO)Cc1c[nH]c2ccccc12)c1cc(-c2ccc(O)cc2)cc2c1OCC2 , I see its log10 of IC50 listed as 2.85
